molecular target: bovine trypsin (Bos taurus, UniProt P00760); assay: Trypsin inhibitory activity of peptides (BApNA hydrolysis, OD405; IC50, Ki, residual activity); assay type: biochemical; details: peptide 0.098 μM
Sequence (P00760 24-246): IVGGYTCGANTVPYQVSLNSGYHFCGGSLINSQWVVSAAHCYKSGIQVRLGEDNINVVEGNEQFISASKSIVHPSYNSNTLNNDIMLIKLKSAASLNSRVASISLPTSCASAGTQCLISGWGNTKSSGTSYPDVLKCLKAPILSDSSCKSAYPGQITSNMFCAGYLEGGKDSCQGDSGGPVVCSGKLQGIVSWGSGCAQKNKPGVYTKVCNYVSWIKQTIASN
Bridge positions count the residues as written; N and C are the ends. Square brackets hold non-standard residues; d marks the D form. Peptide text beside a SMILES is read from it. Nle = CCCC[C@H](N)C(=O)O
// Residual trypsin activity lookup, one value per entry
Dear colleague, please return just the value in %, with no unit written.

[
  {
    "molecule": "CCCC[C@@H]1NC(=O)[C@H](CCCNC(=N)N)NC(=O)CNC(=O)[C@@H](N)CSSC[C@@H](C(=O)N[C@@H](Cc2ccccc2)C(=O)O)NC(=O)[C@H]([C@@H](C)CC)NC(=O)[C@@H]2CCCN2C(=O)[C@@H]2CCCN2C(=O)[C@H]([C@@H](C)CC)NC(=O)[C@H](CO)NC(=O)[C@H](CCCCN)NC(=O)[C@H]([C@@H](C)O)NC1=O [BT50] (H-CGR[Nle]TKSIPPICF-OH; disulfide 1-12; C-terminus assumed)",
    "Residual trypsin activity, %": 22.6
  }
]

Measured Residual trypsin activity for this entry CC[C@H](C)[C@@H]1NC(=O)[C@@H]2CCCN2C(=O)[C@@H]2CCCN2C(=O)[C@H]([C@@H](C)CC)NC(=O)[C@H](C)NC(=O)[C@H](CCCCN)NC(=O)[C@H]([C@@H](C)O)NC(=O)[C@H](C)NC(=O)[C@H](CCCNC(=N)N)NC(=O)CNC(=O)[C@@H](N)CSSC[C@@H](C(=O)N[C@@H](Cc2ccccc2)C(=O)O)NC1=O [BT27] (H-CGRATKAIPPICF-OH; disulfide 1-12; C-terminus assumed) on bovine trypsin (Bos taurus, UniProt P00760): 92.0

meta.source: patent US20230416329A1
